Molecular target: Serine/threonine-protein kinase PAK 3 (Homo sapiens) (UniProt O75914);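 note: mean percent inhibition of PAK3, measured in a screen of the GSK published kinase inhibitor set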
Sequence (O75914 whole entry, looked up): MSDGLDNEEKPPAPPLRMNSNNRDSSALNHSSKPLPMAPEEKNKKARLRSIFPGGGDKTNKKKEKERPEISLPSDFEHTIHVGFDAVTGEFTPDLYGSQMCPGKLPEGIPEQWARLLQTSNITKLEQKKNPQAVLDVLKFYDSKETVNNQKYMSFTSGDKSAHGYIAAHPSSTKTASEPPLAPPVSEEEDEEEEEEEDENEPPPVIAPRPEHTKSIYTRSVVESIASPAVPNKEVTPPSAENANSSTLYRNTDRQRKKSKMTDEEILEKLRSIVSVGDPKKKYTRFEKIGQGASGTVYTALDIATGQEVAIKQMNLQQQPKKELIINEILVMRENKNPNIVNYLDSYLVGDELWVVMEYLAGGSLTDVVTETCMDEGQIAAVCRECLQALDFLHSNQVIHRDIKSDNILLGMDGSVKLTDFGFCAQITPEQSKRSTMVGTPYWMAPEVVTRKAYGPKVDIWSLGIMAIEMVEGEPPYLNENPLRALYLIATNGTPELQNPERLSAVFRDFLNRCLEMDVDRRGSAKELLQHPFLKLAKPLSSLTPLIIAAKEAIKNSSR
Settings: at 0.1 µM
Please go through the items and note down their inhibition.
Numbers only, in %.

Some solved entries appear below for comparison.
> print(dat)
                                smiles.data  measurement.kind  recorded.result
1                CCn1c(-c2nonc2N)nc2ccccc21        inhibition             1.86
2  CCn1c(-c2nonc2N)nc2c(C#CC(C)(C)O)nc(OC[C@H](N)c3ccccc3)cc21        inhibition             2.18
3  CC(C)COC(=O)c1ccc2c(c1)/C(=C/Nc1ccc(S(N)(=O)=O)cc1)C(=O)N2        inhibition            -2.65
4  COc1ccc(-c2nn3ncccc3c2-c2ccnc(Nc3ccc4c(c3)OCCO4)n2)cc1        inhibition             1.09
5  c1ccc(-c2nc3n(c2-c2ccc4c(c2)OCO4)CCC3)nc1        inhibition             1.57

Please give inhibition for each item listed below.
1. COc1cccc(-c2c[nH]c3c(N/N=C/c4ccncc4)ncnc23)c1
2. CCCN(CCS(C)(=O)=O)Cc1ccc(-c2ccc3ncnc(Nc4ccc(OCc5cccc(F)c5)c(Cl)c4)c3c2)o1
3. COC(=O)c1sc(-n2cnc3cc(OC)c(OC)cc32)cc1OCc1ccccc1C(F)(F)F
4. O=C(O[C@H]1CN[C@H](C#Cc2cc3ncnc(Nc4ccc(Cc5ccccc5)cc4)c3s2)C1)N1CCOCC1

1. 1.83
2. 1.58
3. 3.84
4. 3.06

---

Target: Mitogen-activated protein kinase 14 (Homo sapiens) (UniProt Q16539);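 note: values are mean percent inhibition of p38alpha kinase activity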
Sequence (Q16539 whole entry): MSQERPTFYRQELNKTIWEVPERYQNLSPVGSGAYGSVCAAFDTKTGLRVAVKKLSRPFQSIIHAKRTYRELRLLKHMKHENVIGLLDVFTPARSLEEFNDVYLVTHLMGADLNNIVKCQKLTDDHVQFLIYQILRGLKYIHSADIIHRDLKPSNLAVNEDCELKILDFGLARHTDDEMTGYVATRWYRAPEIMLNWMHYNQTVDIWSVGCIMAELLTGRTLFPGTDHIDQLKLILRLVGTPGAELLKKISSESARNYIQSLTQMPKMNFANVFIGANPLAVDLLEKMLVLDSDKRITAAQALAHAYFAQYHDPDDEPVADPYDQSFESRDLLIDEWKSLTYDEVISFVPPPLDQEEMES
Details: at 1 µM
Decide by inhibition: equal to or exceeding 9% means True, less means False.

Answered cases to consult:
> print(dat)
                                smiles.data                               measured.on  assigned.label
1  FC(F)(F)c1cccc(-c2nn3ncccc3c2-c2ccnc(Nc3ccc4c(c3)OCCO4)n2)c1  Mitogen-activated protein kinase 14 (Homo sapiens) (UniProt Q16539)            True
2  CCn1cc(-c2ccnc3[nH]ccc23)c(-c2cccc(NC(=O)Nc3ccc(OCc4ccccc4)cc3)c2)n1  Mitogen-activated protein kinase 14 (Homo sapiens) (UniProt Q16539)           False

Reported inhibition reaches at least 9% for COc1cc(/C=N/Nc2ncnc3[nH]ncc23)ccc1O ?
False

Determine whether this compound has inhibition no lower than 9%: CCCN(CCS(C)(=O)=O)Cc1ccc(-c2ccc3ncnc(Nc4ccc(OCc5cccc(F)c5)c(Cl)c4)c3c2)o1
False

---

Target: Proto-oncogene tyrosine-protein kinase ROS (Homo sapiens) (UniProt P08922)
Sequence (P08922 whole entry): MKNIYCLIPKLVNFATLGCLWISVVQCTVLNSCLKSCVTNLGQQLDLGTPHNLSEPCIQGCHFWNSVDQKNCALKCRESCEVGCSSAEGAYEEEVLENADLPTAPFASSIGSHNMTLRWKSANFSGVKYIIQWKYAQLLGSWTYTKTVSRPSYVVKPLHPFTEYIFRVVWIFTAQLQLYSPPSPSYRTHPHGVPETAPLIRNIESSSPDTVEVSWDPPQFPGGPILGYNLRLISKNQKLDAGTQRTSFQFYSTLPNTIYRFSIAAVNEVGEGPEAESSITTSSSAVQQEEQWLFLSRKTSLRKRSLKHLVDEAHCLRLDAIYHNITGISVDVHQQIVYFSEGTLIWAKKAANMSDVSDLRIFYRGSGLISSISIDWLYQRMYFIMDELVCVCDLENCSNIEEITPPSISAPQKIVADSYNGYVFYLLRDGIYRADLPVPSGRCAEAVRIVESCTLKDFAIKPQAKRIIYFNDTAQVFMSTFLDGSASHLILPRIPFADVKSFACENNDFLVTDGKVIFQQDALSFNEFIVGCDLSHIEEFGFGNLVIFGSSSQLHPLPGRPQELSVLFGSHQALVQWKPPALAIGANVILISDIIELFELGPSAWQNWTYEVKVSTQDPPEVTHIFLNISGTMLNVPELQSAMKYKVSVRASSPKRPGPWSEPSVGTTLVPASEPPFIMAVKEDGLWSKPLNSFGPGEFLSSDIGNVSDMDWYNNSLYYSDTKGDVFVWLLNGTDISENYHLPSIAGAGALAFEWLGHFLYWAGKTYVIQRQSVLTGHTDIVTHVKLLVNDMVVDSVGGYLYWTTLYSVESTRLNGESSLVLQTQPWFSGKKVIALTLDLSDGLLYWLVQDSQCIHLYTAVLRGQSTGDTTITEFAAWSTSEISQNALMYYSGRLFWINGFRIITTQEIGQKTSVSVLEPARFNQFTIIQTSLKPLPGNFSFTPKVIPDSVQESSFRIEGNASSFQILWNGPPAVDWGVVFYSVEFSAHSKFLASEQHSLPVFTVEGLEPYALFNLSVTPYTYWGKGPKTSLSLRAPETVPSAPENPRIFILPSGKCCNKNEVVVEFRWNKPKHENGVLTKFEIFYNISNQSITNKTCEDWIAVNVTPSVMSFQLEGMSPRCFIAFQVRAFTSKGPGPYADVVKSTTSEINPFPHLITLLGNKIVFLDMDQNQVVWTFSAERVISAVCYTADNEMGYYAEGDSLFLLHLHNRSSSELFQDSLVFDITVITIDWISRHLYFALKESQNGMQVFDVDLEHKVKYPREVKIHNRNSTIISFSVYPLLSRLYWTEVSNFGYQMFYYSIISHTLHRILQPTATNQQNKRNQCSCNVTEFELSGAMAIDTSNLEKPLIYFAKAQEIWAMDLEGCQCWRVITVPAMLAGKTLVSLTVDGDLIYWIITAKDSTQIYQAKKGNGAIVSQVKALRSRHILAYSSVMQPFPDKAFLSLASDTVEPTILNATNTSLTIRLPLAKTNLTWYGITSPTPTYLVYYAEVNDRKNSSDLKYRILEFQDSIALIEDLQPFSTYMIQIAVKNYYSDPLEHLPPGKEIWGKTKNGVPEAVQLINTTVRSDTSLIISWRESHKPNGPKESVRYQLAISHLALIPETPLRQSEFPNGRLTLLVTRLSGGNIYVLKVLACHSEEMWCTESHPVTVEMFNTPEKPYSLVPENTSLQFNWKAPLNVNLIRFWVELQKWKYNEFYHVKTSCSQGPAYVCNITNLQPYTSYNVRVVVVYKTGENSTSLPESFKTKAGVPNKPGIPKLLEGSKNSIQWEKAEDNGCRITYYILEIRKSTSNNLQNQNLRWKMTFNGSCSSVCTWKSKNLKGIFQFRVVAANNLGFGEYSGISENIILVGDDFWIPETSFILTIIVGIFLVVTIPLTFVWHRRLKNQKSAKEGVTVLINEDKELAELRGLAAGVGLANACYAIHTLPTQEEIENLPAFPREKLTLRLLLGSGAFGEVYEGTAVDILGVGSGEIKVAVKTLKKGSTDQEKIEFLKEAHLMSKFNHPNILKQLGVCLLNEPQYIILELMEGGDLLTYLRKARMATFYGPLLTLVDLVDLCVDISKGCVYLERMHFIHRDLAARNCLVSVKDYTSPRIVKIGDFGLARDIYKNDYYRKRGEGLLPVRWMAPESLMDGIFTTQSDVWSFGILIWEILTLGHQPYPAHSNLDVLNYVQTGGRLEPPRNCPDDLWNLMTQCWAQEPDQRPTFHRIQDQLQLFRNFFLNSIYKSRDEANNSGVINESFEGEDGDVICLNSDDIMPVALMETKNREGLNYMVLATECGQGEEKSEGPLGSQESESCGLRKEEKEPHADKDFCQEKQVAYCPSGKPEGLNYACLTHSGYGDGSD
Settings: at 0.1 µM
Description: GSK_PKIS: ROS mean inhibition at 0.1 uM [Nanosyn]
Measurement kind: inhibition (%)
One number for each entry, in %.

> print(dat)
                                smiles.data  recorded.result
1  COc1ccc(-c2oc3ncnc(N)c3c2-c2ccc(NC(=O)Nc3cc(C(F)(F)F)ccc3F)cc2)cc1             32.7
2  NS(=O)(=O)c1ccc(N/N=C2\C(=O)Nc3ccc4ncccc4c32)cc1              8.1
3  COC(=O)Nc1nc2ccc(S(=O)(=O)c3ccc(NC(=O)Nc4cc(C(F)(F)F)ccc4F)cc3)cc2[nH]1             2.51
4  CC(C)(CO)CNC(=O)c1ccc2c(c1)/C(=N/Nc1ccc(S(N)(=O)=O)cc1)C(=O)N2             0.74
5  CCNC(=O)O[C@H]1CN[C@H](C#Cc2cc3ncnc(Nc4ccc(OCc5cccc(F)c5)c(Cl)c4)c3s2)C1             4.68

Please state, for each entry, its recorded inhibition.
1. COc1ccc(CNC(=O)c2ccc(-c3cc(-c4nnc(C)o4)ccc3C)cc2)cc1
2. CCOc1ccc2c(-c3ccnc(Nc4cccc(C(F)(F)F)c4)n3)cnn2n1
3. COc1ccc(-c2cc(-c3c[nH]nc3-c3ccccn3)ccn2)cc1
4. CNC(=O)c1cccc(C#Cc2cncnc2Nc2ccc(OCc3cccc(F)c3)c(Cl)c2)c1
5. COc1cc(/C=N/Nc2ncnc3[nH]ncc23)ccc1O
6. CCn1c(-c2nonc2N)nc2c(C#CC(C)(C)O)ncc(OC3CCNCC3)c21

[6.1, 2.05, 3.05, -2.5, 5.97, 7.34]

Could I get inhibition for every one of these entries?
1. COC(=O)c1sc(-n2cnc3cc(OC)c(OC)cc32)cc1OCc1ccccc1C(F)(F)F
2. COc1cccc(-n2ncc3c(N/N=C/c4ccc(F)cc4)ncnc32)c1
3. COc1cc2c(cc1Nc1nc(Nc3ccsc3C(N)=O)c3cc[nH]c3n1)N(C(=O)CN(C)C)CCC2(C)C

1. 6.32
2. 3.85
3. 79.7
